# EXPERIMENT_NOTES: physchem
# ASSAY_SETUP: octanol/buffer
READOUT_LABEL: logP
Keep the answer to the number alone.

1) COCCCc1cc(CN(C(=O)[C@H]2CNCC(=O)N2c2ccc(OCCCOCc3ccccc3)cc2)C2CC2)c(Cl)cn1	4.49
2) COc1ccccc1COCCCOc1ncc(N2C(=O)CNC[C@@H]2C(=O)N(Cc2cccc(Cl)c2Cl)C2CC2)cn1	3.64

# next molecule below
// logP lookup, key: Cc1cc(Cl)c(OCCOc2ccc(N3C(=O)CNC[C@@H]3C(=O)N(C)Cc3ccccc3Cl)cc2)c(Cl)c1 5.18

----------
# EXPERIMENT_NOTES: physchem
# ASSAY_SETUP: octanol/buffer
Below, each of the compounds is paired with its reported logP value.
Keep the answer to the number alone.

1) CNC(=O)CCc1ccc(Cl)c(CN(C(=O)[C@H]2CNCC(=O)N2c2ccc(CCCOc3c(F)ccc(F)c3F)cc2)C2CC2)c1	5.24

// logP lookup, key: Cc1cc(Cl)c(OCCOc2ccc(N3C(=O)CNC[C@@H]3C(=O)N(C)Cc3ccccc3)cn2)c(Cl)c1 3.76

// logP lookup, key: CNC(=O)Cc1ccc(Cl)c(CN(C(=O)[C@H]2CNCC(=O)N2c2ccc(OCCOc3c(Cl)cc(C)cc3Cl)nc2)C2CC2)c1 4.43

// logP lookup, key: O=C([C@H]1CNCC(=O)N1c1ccc(CCCOc2c(F)ccc(F)c2F)cc1)N(Cc1cccc(Cl)c1Cl)C1CC1 6.32

// logP lookup, key: O=C(NCc1ccc(Cl)c(CN(C(=O)[C@H]2CNCC(=O)N2c2ccc(CCCOc3c(F)ccc(F)c3F)cc2)C2CC2)c1)C1CC1 5.54

// logP lookup, key: Cc1cc(Cl)c(OCCOc2ccc(N3C(=O)CNC[C@@H]3C(=O)N(Cc3cc(CC(=O)NC4CC4)ccc3Cl)C3CC3)cn2)c(Cl)c1 5.08

// logP lookup, key: O=C(NCc1ccccc1)[C@H]1CNCC(=O)N1c1ccc(OCCCOCc2ccccc2)cc1 3.67

// logP lookup, key: COc1cccc(CN(C(=O)[C@H]2CNCC(=O)N2c2ccc(COC(=O)c3ccccc3)cc2)C2CC2)c1C 4.39
